pKi: −log10 of the molar value.
Below are pKi measurements against Somatostatin receptor type 5 (Homo sapiens) drawn from the literature.
Sequence (P35346 whole entry): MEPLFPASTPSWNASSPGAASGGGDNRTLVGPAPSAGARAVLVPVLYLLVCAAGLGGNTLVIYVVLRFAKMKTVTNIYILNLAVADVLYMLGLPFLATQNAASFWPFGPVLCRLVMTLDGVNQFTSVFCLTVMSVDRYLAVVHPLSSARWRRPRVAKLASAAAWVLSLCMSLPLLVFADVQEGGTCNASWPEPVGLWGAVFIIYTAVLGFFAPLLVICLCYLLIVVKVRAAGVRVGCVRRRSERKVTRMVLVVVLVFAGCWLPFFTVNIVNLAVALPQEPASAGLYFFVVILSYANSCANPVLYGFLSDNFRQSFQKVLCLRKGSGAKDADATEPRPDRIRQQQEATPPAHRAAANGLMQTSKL
quantity_kind: pKi

                                        mol  observed
0  CCOc1cc(CN2CCC(NC(=O)c3cncc(C)c3)CC2)ccc1Cl      7.82
1  NC[C@H]1CCC[C@@H](CNC(=O)[C@H](Cc2c[nH]c3ccccc23)NC(=O)N2CCC3(C=Cc4ccccc43)CC2)C1      5.48
2  NCCCCn1c(SCCc2c[nH]c3cc(F)ccc23)nnc1-c1ccc2ccccc2n1      8.77

[a] CCOc1cc(CN2CCC[C@@H](NC(=O)c3cncc(C)c3)CC2)ccc1Cl
[b] NCCCCn1c(SCCc2c[nH]c3ccccc23)nnc1-c1cnc2ccccc2n1
Return label of the item with the larger pKi. Candidates: a , b . Identify your selection by its label.
a
(a: 7.74, b: 7.25)
